Assay: Cytotoxicity against human A-375 cells assessed as cell viability at 40 uM incubated for 24 hrs by MTT assay
Format: toxicity, cell-based
Conditions: read-out: Activity
property_label: viability at 24 h, 40 µM
Give me the value, and tack the unit on after it.

Lookup: Specify viability at 24 h, 40 µM for "CC[N+]1=C(/C=C/C2=C(Cl)C(=C/C=C3\N(CCCCCC(=O)O/C(=N/C4CCCCC4)NC4CCCCC4)c4ccccc4C3(C)C)/CCC2)C(C)(C)c2ccccc21.[Br-]" and stop.
Found: 90%
